Overview of reported seed-corrected z-score across a group of sequences:
Test: Identification of proteins required for the processing of the EWS-FLI1 nascent transcript;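 note: robust z of luciferase light less the median z of siRNAs with the same seed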
Conditions: TC32 Ewing sarcoma NR0B1-luc vs CMV-luc (EWS-FLI1 target promoter against control promoter), 48 h; screened at 20 nM (by protocol)
Procedure: Ewing sarcoma (ES) cells depend on the EWS-FLI1 fusion transcription factor for cell survival. […] Luciferase activity was assessed 48 hours post siRNA-transfection. Twenty microl of serum-free media containing Lipofectamine RNAiMax (0.05 microl) was added to wells containing siRNA (0.8 pmol). […] Luciferase expression was measured using OneGlo (Promega, Madison, WI). […]
Over roughly 59,000 sequences, the read-out has its median near -0.00055; the lowest 2% begin near -2. The sample as a whole holds a higher share of the lowest values than the screen did.
readout_type: seed-corrected z-score

1. UGUCAUAACAGCUCCGCGA against ELK1P1 | -0.141
2. UUGAACUAAACAUAUCAGC against TAB3 | 1.2
3. UCAAAUUCGUCCUGGGUCC against UGT1A5 | -1.44
4. UGAUGUCCAACACCAGUCC against ADCY3 | 1.37
5. UCCGAAAGCACCACGAUGA against SIGIRR | 0.222
6. UUUGCUAUCAGGGAACAUC against SPRR2B | -0.452
7. AAUGCAACCACAGCUAUCC against THNSL1 | 0.294
8. UAUGUCUUCACGCAGCCGC against PI4KAP2 | -1.12
9. UUUCGAAUUAACGCAACUG against HECTD1 | 0.00197
10. AAAAGAACCUCCAACAAUC against COX16 | -2
11. UAAUCGUUUCUACAAGAUC against ATF7IP | -2.43
12. UUUAUCGAAAGCAAAAUUG against MTPAP | 0.577
13. UAUUCGAGCGCAGUGCUGG against C10orf67 | -0.133
14. AAGCCUCACAGUACUGCGC against NSMCE3 | -2.76
15. AACGAAGCAAGCAUGGUCC against LARP6 | -0.832
16. UGUCUUCUAAGUAGAGCCU against VIPR2 | -2.47
17. UUUAAGAUAGGCGACACUG against LMOD3 | 0.0486
18. UCCGAGAUGAGGUAUUAGG against PPIP5K2 | 0.207
19. UCAUGUAAAACUCUCGGCC against PARS2 | -0.0062
20. UUACUGGGAAUAGCACUGC against ITGA5 | 0.318
21. AACGGUAUUGAUGACAGCC against TMLHE | -0.307
22. AAUCGUACACUCUCCGUAG against CHST2 | -1.01
23. UUCAGUUGAAUUCCAAAGG against ARHGAP28 | 0.997
24. AAGGCUCUGACAACGAUUC against LMNB1 | -1.07
25. AAUGCUCCAAGACUGGAGG against PTCRA | -1.44
26. UUUUCGAGGACAUUGACUG against FMN1 | 0.159
27. UCUAGUAUUACUGCUACUG against DDHD2 | 0.72
28. UGCCGUCUUACUCUUUGCG against C19orf53 | -0.415
29. UAGCAUACUAUUGUCCUGC against MRPL42 | 0.102
30. UGGUUUUAGAGGAAUAGGG against SLC51A | -0.953
31. UAUCCUGUAAGUUGUGGGC against TEX28 | 1.15
32. UUUGAUUCCAUGUAGCUGU against MTCP1 | 0.871
33. AUUCACACCAGUAUUAGUG against KIAA1456 | 0.152
34. UCUCUUGCUUGGAGGAAGC against ZNF174 | 0.443
35. UGAAGGAAGAAUCGUCGCC against PTHLH | -0.782
36. UUGACAGCAAUCACAGUGG against AWAT2 | 0.583
37. AGUAGAAAGACCAUGCUUG against TUBB2A | 0.712
38. UACUGAGGACCUUUCGUUC against SPATA21 | -0.926
39. AAACUUCUUGGGUUUCUAC against ZBTB8OSP1 | 0.246
40. UUUACGUCGUUCUUCUUCC against TXLNG | 0.0162
41. UCUCUUUAUGCAGCUGACA against LTF | -2.1
42. UUCUUAUCAAGAAUAGUCC against PTER | -0.285
43. UCCAGUUCUUUCUUGGUCG against GTPBP6 | 0.447
